Target: T1, hCMV glycoprotein B (gB; HEK293T transfectant) (hCMV, UniProt P06473 32-906)
T1 construct: whole, on cells; in the functional rows it stands for gB on virions or transduced cells of the strain or isolate named in the readout
T1 sequence (P06473 32-906 limits assumed): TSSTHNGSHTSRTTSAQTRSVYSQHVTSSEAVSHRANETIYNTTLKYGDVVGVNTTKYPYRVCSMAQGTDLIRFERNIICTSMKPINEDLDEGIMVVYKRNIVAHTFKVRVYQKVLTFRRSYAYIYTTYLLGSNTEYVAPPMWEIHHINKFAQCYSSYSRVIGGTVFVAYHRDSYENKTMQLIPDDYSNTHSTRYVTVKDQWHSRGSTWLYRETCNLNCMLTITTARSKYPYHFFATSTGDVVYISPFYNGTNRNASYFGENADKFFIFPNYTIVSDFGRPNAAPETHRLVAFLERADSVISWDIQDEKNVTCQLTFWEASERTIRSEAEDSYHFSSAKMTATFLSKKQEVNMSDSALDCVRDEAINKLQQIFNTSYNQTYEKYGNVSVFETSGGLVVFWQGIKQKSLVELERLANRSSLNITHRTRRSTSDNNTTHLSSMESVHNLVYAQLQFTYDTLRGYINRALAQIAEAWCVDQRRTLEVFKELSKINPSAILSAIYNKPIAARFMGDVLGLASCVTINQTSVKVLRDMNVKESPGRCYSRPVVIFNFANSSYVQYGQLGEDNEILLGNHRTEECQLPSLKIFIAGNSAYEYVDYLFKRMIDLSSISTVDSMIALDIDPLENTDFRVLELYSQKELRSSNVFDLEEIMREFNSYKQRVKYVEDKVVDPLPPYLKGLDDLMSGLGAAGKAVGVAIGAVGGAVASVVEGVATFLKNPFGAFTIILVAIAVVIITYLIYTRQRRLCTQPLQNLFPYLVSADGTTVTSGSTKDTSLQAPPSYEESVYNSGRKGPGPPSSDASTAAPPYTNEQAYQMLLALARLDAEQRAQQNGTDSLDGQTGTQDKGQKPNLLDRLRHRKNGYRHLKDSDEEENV
Test: cell competition; competitor 2B11-biotin
readout: Inhibition of binding (%)

{"binder": "7H3 (antibody, V domains shown, fully human IgG1 with unaltered Fc; also called 7H3-biotin; LJP538) VH: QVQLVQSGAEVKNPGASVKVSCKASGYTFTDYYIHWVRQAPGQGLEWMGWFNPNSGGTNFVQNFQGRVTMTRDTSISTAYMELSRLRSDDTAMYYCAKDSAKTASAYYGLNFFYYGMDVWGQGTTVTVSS VL: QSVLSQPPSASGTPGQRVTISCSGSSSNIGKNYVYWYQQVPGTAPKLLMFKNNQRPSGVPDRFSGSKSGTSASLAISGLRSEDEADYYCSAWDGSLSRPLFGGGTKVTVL", "Inhibition of binding (%)": "0%"}

Problem: Tell me its Inhibition of binding (%) given 6B4 (antibody, V domains shown, human IgG; also called 6B4-biotin) VH: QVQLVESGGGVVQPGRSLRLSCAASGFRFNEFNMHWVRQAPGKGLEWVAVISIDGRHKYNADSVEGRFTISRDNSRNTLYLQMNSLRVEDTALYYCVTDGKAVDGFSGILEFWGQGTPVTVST VL: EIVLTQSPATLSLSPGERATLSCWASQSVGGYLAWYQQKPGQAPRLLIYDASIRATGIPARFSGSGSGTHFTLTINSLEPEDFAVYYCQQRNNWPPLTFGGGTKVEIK as the entry.
Result: 0%

Problem: Tell me its Inhibition of binding (%) given 2B11 (antibody, V domains shown, human IgG; also called 2B11-biotin) VH: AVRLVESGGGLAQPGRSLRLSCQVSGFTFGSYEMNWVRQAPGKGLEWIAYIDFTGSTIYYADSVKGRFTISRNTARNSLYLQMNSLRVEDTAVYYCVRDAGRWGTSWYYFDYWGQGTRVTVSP VL: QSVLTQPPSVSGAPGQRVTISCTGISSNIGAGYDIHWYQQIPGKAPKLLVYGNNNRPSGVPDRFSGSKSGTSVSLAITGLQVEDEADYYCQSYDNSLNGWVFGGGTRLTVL as the entry.
Result: 100%

Hey, just so you know, these numbers are from patent US20170296650A1.
